# targetDesc: CYP46A1 (Homo sapiens, UniProt Q9Y6A2)
# Sequence (Q9Y6A2 whole entry): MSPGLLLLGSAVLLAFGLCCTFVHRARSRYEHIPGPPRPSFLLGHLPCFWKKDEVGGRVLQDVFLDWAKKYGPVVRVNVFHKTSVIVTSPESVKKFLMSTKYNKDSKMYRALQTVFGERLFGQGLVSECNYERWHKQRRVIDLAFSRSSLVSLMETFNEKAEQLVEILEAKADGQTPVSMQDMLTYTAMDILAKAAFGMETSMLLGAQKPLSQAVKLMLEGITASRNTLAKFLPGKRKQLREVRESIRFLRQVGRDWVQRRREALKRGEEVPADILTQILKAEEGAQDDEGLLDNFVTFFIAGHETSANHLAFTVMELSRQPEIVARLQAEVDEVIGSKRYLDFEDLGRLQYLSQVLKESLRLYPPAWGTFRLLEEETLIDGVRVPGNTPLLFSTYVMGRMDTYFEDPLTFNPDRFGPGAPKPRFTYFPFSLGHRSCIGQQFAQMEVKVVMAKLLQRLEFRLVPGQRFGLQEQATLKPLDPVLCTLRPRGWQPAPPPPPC
# protocolDescription: CYP46A1 Enzyme Assay 2 (testosterone substrate, HPLC-MS)
# Format: biochemical
# settings: read-out: IC50 (CYP46A1 inhibitory activity)
pIC50: −log10 of the molar value.

{"columns": ["compound", "pIC50"],
 "data": [
  ["COc1ccc(CC2(C#N)CCN(C(=O)c3cccnc3-c3ccncn3)CC2)cc1 [Compound A63]", "> 7.00"],
  ["N#CC1(Cc2ccc(F)c(C(F)(F)F)c2)CCN(C(=O)c2cccnc2-c2ccncc2)CC1 [Compound A278]", "> 7.00"],
  ["COc1ccc(CC2(C#N)CCN(C(=O)c3cccnc3-c3ccncn3)CC2)cn1 [Compound A202]", "> 7.00"],
  ["N#CC1(CCc2ccccc2)CCN(C(=O)c2cccnc2-c2ccncc2)CC1 [Compound A68]", "6.00 to 7.00"],
  ["N#C[C@]1(Cc2ccc(F)cc2)CCN(C(=O)c2cccnc2-c2ccncn2)C1 [Compound A235]", "< 6.00"],
  ["Cc1ncc(CC2(C#N)CCN(C(=O)c3cccnc3-c3ccncn3)CC2)cn1 [Compound A203]", "< 6.00"],
  ["N#C[C@@]1(Cc2ccc(F)cc2)C[C@H]2CC[C@@H](C1)N2C(=O)c1cccnc1-c1ccncn1 [Compound A252]", "6.00 to 7.00"],
  ["CC(c1ccc(C(F)(F)F)cc1)C1(C#N)CCN(C(=O)c2cccnc2-c2ccncc2)CC1 (stereo in doubt) [Compound A269]", "> 7.00"],
  ["N#CC1(Cc2ccc(Cl)cc2F)CCN(C(=O)c2cccnc2-c2ccncc2)CC1 [Compound A11]", "> 7.00"],
  ["N#CC1(Cc2ccc(F)cc2F)CCN(C(=O)c2cccnc2-c2ccncn2)CC1 [Compound A51]", "> 7.00"],
  ["CC[C@H](c1ccc(F)cc1)C1(C#N)CCN(C(=O)c2cccnc2-c2ccncn2)CC1 [Compound A215]", "> 7.00"],
  ["Cc1ccc(CC2(C#N)CCN(C(=O)c3cccnc3-c3ccncn3)CC2)cc1 [Compound A35]", "> 7.00"],
  ["N#Cc1ccc(CC2(C#N)CCN(C(=O)c3cccnc3-c3ccncc3)CC2)cc1 [Compound A27]", "> 7.00"],
  ["N#CC1(Cc2ccc(C(F)(F)F)nc2)CCN(C(=O)c2cccnc2-c2ccncn2)CC1 [Compound A222]", "6.00 to 7.00"],
  ["CCc1ccc(CC2(C#N)CCN(C(=O)c3cccnc3-c3ccncn3)CC2)cc1 [Compound A208]", "> 7.00"],
  ["C[C@H](c1ccc(F)cc1)C1(C#N)CCN(C(=O)c2cccnc2-c2ccncn2)CC1 [Compound A45]", "> 7.00"]
]}

All values here come from patent US20220332699A1.
